System: SNB-75 CNS
assay.notes: NCI-60 one-dose screen, 48 h (100 = growth as untreated, 0 = no growth, -100 = all killed)
reported.conditions: 10 µM unless noted
This is part of a sample that, as a whole, favours compounds with a hit. Of some 83,000 tested, about 20% had one in any assay.
measured.attribute: growth (%)
Form entry: value (%) — number only.

INSERT INTO assay_data (compound, system_tested, measured_attribute, readout_units, observed_measurement) VALUES
  ('O=[N+]([O-])c1cc(C(F)(F)F)ccc1Sc1ccc(C(F)(F)F)cc1[N+](=O)[O-]', 'SNB-75 CNS', 'growth', '%', 86),
  ('Cc1ccc2c(c1)C(C)Cc1c(ncnc1-n1cnc3cc(C)ccc31)N2C (centres undefined)', 'SNB-75 CNS', 'growth', '%', 60.3),
  ('CC/C(=C(/c1ccc(Cl)cc1)c1ccc(OCCN2CCOCC2)cc1)c1ccccc1', 'SNB-75 CNS', 'growth', '%', 105),
  ('C=C(CNCCc1ccc(O)cc1)[C@@H]1CC[C@]2(CO)CC[C@]3(C)[C@H](CC[C@@H]4[C@@]5(C)CCC(NCCc6ccc(O)cc6)C(C)(C)[C@@H]5CC[C@]43C)[C@@H]12 (some centres undefined)', 'SNB-75 CNS', 'growth', '%', -87.3),
  ('CC(=O)N1N=C(c2ccc(Nc3nc(Nc4ccc(F)cc4)nc(Nc4ccc(F)cc4)n3)cc2)CC1c1ccccc1 (centres undefined)', 'SNB-75 CNS', 'growth', '%', 80.1),
  ('N#Cc1cc(-c2ccnc(Nc3ccc(NC(=O)CCl)cc3)n2)ccc1N1CCCC1', 'SNB-75 CNS', 'growth', '%', -17.5),
  ('COC(=O)/C=C1/SC(N2N=C(c3cccs3)CC2c2ccc(F)cc2)=NC1=O (centres undefined)', 'SNB-75 CNS', 'growth', '%', 48),
  ('O=C(NNc1ccccc1)c1ncc[nH]1', 'SNB-75 CNS', 'growth', '%', 85.2),
  ('O=C(CN1C(=O)S/C(=C\C(Cl)=C\c2ccccc2)C1=O)NCCCn1ccnc1', 'SNB-75 CNS', 'growth', '%', 32),
  ('O=C1C(c2c[nH]c3ccccc23)=C(c2coc3cc(Br)ccc23)C(=O)N1O', 'SNB-75 CNS', 'growth', '%', 65.4);

Input: growth lookup needed for COc1ccc(C/C(C)=C(/c2ccc(OCCN3CCCCCC3)cc2)c2ccc(OC(=O)c3ccccc3)cc2)cc1 , thanks.
Output: 110

Input: And the next one, N=C(N)c1ccc(-c2ccc(-c3ccc(F)cc3)s2)nc1 ?
Output: 100

Input: And the next one, COc1ccc(C(=O)N/N=C/c2ccc(O)cc2O)cc1Nc1ccnc(C(F)(F)F)c1 ?
Output: 26.4

Input: And the next one, O=C1CCc2c(sc3[nH]c(=S)n(Cc4ccc(Cl)cc4)c(=O)c23)C1 ?
Output: 3.19

Input: And the next one, COCCn1cc(-c2csc(-c3cn(C)c4ccc(F)cc34)n2)c2cccnc21 ?
Output: 76.4

Input: And the next one, COc1ccc(-c2ccccc2)cc1-c1c(Nc2cc(Cl)cc(Cl)c2O)c(=O)c1=O ?
Output: -8.42
